# test.system: glycine transporter-1 (GlyT-1) (Homo sapiens, UniProt P48067)
# Construct: JAR cells (ATCC#HTB-144), which endogenously express GlyT-1; host or cells: JAR human choriocarcinoma cells
# Sequence (P48067 1-706): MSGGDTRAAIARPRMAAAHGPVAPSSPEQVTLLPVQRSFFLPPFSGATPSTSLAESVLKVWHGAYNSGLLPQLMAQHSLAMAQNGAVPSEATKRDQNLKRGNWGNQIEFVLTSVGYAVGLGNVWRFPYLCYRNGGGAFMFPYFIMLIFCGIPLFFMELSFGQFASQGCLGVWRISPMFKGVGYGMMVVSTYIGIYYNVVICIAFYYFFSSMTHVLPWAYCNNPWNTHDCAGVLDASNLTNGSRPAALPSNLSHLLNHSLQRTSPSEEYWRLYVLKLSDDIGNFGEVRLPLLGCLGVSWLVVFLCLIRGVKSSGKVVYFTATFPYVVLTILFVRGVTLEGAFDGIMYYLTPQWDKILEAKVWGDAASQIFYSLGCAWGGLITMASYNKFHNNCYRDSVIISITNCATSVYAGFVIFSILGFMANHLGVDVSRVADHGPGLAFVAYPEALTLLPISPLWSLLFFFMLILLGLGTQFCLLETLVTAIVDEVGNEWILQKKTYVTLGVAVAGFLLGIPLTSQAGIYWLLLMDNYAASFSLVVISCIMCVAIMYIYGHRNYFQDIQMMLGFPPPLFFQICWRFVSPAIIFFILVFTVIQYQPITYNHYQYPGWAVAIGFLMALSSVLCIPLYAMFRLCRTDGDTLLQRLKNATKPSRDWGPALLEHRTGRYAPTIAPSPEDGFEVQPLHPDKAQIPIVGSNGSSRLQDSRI
# experimental.details: [14C]glycine uptake assay in JAR cells endogenously expressing GlyT-1 (scintillation proximity)
# Type: cell-based
# condition: JAR cells, [14C]glycine 5 μM, 3 hour incubation; read-out: GlyT-1 IC50
Structures can show the parent of a compound that is named as a salt.
Entries and their measured pIC50 follow.
The scale used: pIC50 is minus the common logarithm of the concentration in molar units.

molecule | pIC50
CCS(=O)(=O)N1CCN(C2(CNC(=O)c3c(F)ccc(C(F)(F)F)c3F)CCC(F)(F)CC2)CC1 [compound 211, Hydrochloride] | 5.56
CCCS(=O)(=O)N1CCN(C2(CNC(=O)c3c(OC)cc(F)cc3SC)CCCC2)CC1 [compound 74, Hydrochloride] | 6.88
O=C(NCC1(N2CCN(S(=O)(=O)N3CCC(F)(F)C3)CC2)CCC(F)(F)CC1)c1ccc(C(F)(F)F)cc1Cl [compound 272, Hydrochloride] | 5.96
Cn1cnc(S(=O)(=O)N2CCN(C3(CNC(=O)c4c(Cl)cccc4Cl)CCCCCC3)CC2)c1 [compound 106, Hydrochloride] | 8.30
CCCS(=O)(=O)N1CCN(C2(CNC(=O)c3ccc(C(C)C)cc3)CCCCC2)CC1 [compound 33, Hydrochloride] | 6.31

[in] Please tell me: pIC50 of CCCS(=O)(=O)N1CCN(C2(CNC(=O)c3c(F)cc(Cl)cc3F)CCC(F)(F)CC2)CC1 [compound 259, Hydrochloride] , system glycine transporter-1 (GlyT-1) (Homo sapiens, UniProt P48067)?
[out] 7.60

[in] Please tell me: pIC50 of CCCS(=O)(=O)N1CCN(C2(CNC(=O)c3ccc(Cl)cc3Cl)CCC(F)(F)CC2)CC1 [compound 136, Hydrochloride] , system glycine transporter-1 (GlyT-1) (Homo sapiens, UniProt P48067)?
[out] 7.44

[in] Please tell me: pIC50 of CCS(=O)(=O)N1CCN(C2(CNC(=O)c3c(F)cc(Cl)cc3Cl)CCC(F)(F)CC2)CC1 [compound 210, Hydrochloride] , system glycine transporter-1 (GlyT-1) (Homo sapiens, UniProt P48067)?
[out] 7.14

[in] Please tell me: pIC50 of CCCS(=O)(=O)N1CCN(C2(CNC(=O)c3c(Cl)cccc3Cl)CCCCC2)CC1 [compound 43, Hydrochloride] , system glycine transporter-1 (GlyT-1) (Homo sapiens, UniProt P48067)?
[out] 7.92

[in] Please tell me: pIC50 of COc1cc(F)cc(C)c1C(=O)NCC1(N2CCN(S(=O)(=O)c3cn(C)cn3)CC2)CCCC1 [compound 103, Hydrochloride] , system glycine transporter-1 (GlyT-1) (Homo sapiens, UniProt P48067)?
[out] 7.35

###

# test.system: glycine transporter-2 (GlyT-2) (Homo sapiens, UniProt Q9Y345)
# Sequence (Q9Y345 whole entry): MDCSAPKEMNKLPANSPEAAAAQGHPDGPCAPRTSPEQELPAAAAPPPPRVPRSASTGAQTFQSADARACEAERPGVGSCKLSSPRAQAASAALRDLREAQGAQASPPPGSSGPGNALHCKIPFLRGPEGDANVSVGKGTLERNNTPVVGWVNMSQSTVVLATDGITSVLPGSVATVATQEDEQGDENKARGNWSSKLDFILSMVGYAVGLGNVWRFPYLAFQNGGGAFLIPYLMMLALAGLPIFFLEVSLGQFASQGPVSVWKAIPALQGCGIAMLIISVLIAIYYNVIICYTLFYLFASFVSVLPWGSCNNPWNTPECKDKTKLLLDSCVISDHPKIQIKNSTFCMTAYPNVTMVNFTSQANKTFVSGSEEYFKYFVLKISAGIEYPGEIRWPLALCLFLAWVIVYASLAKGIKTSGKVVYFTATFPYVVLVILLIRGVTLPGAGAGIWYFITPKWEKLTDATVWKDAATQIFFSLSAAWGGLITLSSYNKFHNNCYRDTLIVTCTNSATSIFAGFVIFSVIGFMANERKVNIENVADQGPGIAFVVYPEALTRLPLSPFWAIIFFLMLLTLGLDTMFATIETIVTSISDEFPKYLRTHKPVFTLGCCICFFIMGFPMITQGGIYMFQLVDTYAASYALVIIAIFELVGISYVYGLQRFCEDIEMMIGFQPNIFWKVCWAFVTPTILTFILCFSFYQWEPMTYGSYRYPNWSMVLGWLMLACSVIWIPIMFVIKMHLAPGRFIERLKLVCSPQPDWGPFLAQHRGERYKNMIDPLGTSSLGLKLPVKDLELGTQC
# experimental.details: [14C]glycine uptake assay in HEK-GlyT-2 transfected cells
# condition: HEK-GlyT-2 cells
pIC50: −log10 of the molar value. Structures can show the parent of a compound that is named as a salt.
Entries and their measured pIC50 follow.

compound | test.system | readout.value
O=C(NCC1(N2CCN(S(=O)(=O)c3cn(C(F)F)nn3)CC2)CCC(F)(F)CC1)c1ccc(C(F)(F)F)cc1Cl [compound 236, Hydrochloride] | glycine transporter-2 (GlyT-2) (Homo sapiens, UniProt Q9Y345) | < 4.12

[in] State the recorded pIC50 for this entry: CCCS(=O)(=O)N1CCN(C2(CNC(=O)c3ccc(F)cc3Cl)CCCCC2)CC1 [compound 12, Hydrochloride]
[out] < 4.12

[in] State the recorded pIC50 for this entry: CC(NC(=O)c1ccc(C(F)(F)F)cc1C(F)(F)F)C1(N2CCN(S(=O)(=O)c3cn(C)nn3)CC2)CCC(F)(F)CC1 (stereo not drawn) [compound 226, Hydrochloride]
[out] < 4.12

###

Entries and their measured pIC50 follow.
# test.system: glycine transporter-2 (GlyT-2) (Homo sapiens)
# experimental.details: [14C]glycine uptake assay in HEK-GlyT-2 transfected cells
# condition: HEK-GlyT-2 cells
pIC50: −log10 of the molar value. Counter-ions that a name gives are not always drawn.

[in] State the recorded pIC50 for this entry: CC(NC(=O)c1ccc(F)cc1Cl)C1(N2CCN(S(=O)(=O)c3cn(C)nn3)CC2)CCC(F)(F)CC1 (stereo not shown) [compound 219, Hydrochloride]
[out] < 4.12

[in] State the recorded pIC50 for this entry: Cc1cccc(C)c1C(=O)NCC1(N2CCN(S(=O)(=O)c3cn(C)cn3)CC2)CCCCC1 [compound 95, Hydrochloride]
[out] < 4.12

[in] State the recorded pIC50 for this entry: CCCS(=O)(=O)N1CCN(C2(CNC(=O)c3ccccc3OC(F)(F)F)CCC(F)(F)CC2)CC1 [compound 141, Hydrochloride]
[out] < 4.12

[in] State the recorded pIC50 for this entry: CCCS(=O)(=O)N1CCN(C2(CNC(=O)c3c(C)cc(Cl)cc3C)CCC(F)(F)CC2)CC1 [compound 266, Hydrochloride]
[out] < 4.12

[in] State the recorded pIC50 for this entry: CCCS(=O)(=O)N1CCN(C2(CNC(=O)c3c(N)cccc3F)CCCCC2)CC1 [compound 41, Hydrochloride]
[out] < 4.12

[in] State the recorded pIC50 for this entry: CCCS(=O)(=O)N1CCN(C2(CNC(=O)c3cccc(C(F)(F)F)c3)CCCCC2)CC1 [compound 28, Hydrochloride]
[out] < 4.12

[in] State the recorded pIC50 for this entry: CCS(=O)(=O)N1CCN(C2(CNC(=O)c3ccc(C(F)(F)F)cc3Cl)CCC(F)(F)CC2)CC1 [compound 203, Hydrochloride]
[out] < 4.12

###

# test.system: glycine transporter-1 (GlyT-1) (Homo sapiens, UniProt P48067)
# Construct: JAR cells (ATCC#HTB-144), which endogenously express GlyT-1; host or cells: JAR human choriocarcinoma cells
# experimental.details: [14C]glycine uptake assay in JAR cells endogenously expressing GlyT-1 (scintillation proximity)
# Assay type: cell-based
# condition: JAR cells, [14C]glycine 5 μM, 3 hour incubation; read-out: GlyT-1 IC50
Counter-ions that a name gives are not always drawn.
Response field label: string, one of Met (IC50 strictly below 50 nM) or Not met.

compound | class.assignment
CCCS(=O)(=O)N1CCN(C2(CNC(=O)c3ccccc3OC(F)F)CCC(F)(F)CC2)CC1 [compound 142, Hydrochloride] | Not met

[in] Dear colleague, could you confirm whether IC50 of CCCS(=O)(=O)N1CCN(C2(CNC(=O)c3c(F)cccc3OC)CCCCC2)CC1 [compound 44, Hydrochloride] falls below 50 nM? Thanks.
[out] Met

[in] Dear colleague, could you confirm whether IC50 of Cn1cnc(S(=O)(=O)N2CCN(C3(CNC(=O)c4c(F)cccc4F)CCOCC3)CC2)c1 [compound 124, Hydrochloride] falls below 50 nM? Thanks.
[out] Not met

[in] Dear colleague, could you confirm whether IC50 of CCCS(=O)(=O)N1CCN(C2(CNC(=O)c3ccc(Cl)cc3OC(F)F)CCC(F)(F)CC2)CC1 [compound 249, Hydrochloride] falls below 50 nM? Thanks.
[out] Met

[in] Dear colleague, could you confirm whether IC50 of O=C(NCC1(N2CCN(S(=O)(=O)C3CCC3)CC2)CCCCC1)c1ccc(Cl)cc1Cl [compound 93, Hydrochloride] falls below 50 nM? Thanks.
[out] Not met

[in] Dear colleague, could you confirm whether IC50 of COc1cc(F)cc(C)c1C(=O)NCC1(N2CCN(S(=O)(=O)c3cn(C)nn3)CC2)CCCC1 [compound 112, Hydrochloride] falls below 50 nM? Thanks.
[out] Met
